The values you see were collected from paper PMC10668032.

TARGET_UNDER_TEST: SIX1-Q177R homeodomain (human, UniProt Q15475 108-198, Q177R)
Sequence: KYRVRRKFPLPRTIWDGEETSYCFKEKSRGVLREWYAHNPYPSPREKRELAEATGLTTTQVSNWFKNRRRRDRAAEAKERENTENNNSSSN
TEST_PROTOCOL: universal protein binding microarray; Universal all-10-mer PBM (8x60K, AMADID 030236), 300 nM GST-tagged protein, Alexa Fluor 488 anti-GST; buffer, salt, pH and temperature not stated (as in Berger); high values mean tight binding
COND: protein: ivt; tags: N-terminal GST; dsDNA, one strand shown
In all, about 33,000 sequences were measured (“e-score”: median about -0.05, highest 2% from about 0.38 on). This is one part of a sample in which the highest values are shown more often than they occur.
Below, each of the sequences is paired with its reported binding signal value.
Please state the figure in E-score; there is no need to write the unit.

Some sequences with known binding signal results, for comparison:
ACACCCCC
0.487
ACCCCCCG
0.329
CGACCTCA
0.168
CACCCGTG
0.37
GGTAAACA
0.188

# evaluate next
Q: Could you tell me which binding signal is on file for ACCCCCAC ?
A: 0.282
